B1: N-terminal 3×-FLAG-tagged p52 (WT) [human] / XPB [human (endogenous in HEK293T)] (parent complex)
chain 1: MESTPSRGLNRVHLQCRNLQEFLGGLSPGVLDRLYGHPATCLAVFRELPSLAKNWVMRMLFLEQPLPQAAVALWVKKEFSKAQEESTGLLSGLRIWHTQLLPGGLQGLILNPIFRQNLRIALLGGGKAWSDDTSQLGPDKHARDVPSLDKYAEERWEVVLHFMVGSPSAAVSQDLAQLLSQAGLMKSTEPGEPPCITSAGFQFLLLDTPAQLWYFMLQYLQTAQSRGMDLVEILSFLFQLSFSTLGKDYSVEGMSDSLLNFLQHLREFGLVFQRKRKSRRYYPTRLAINLSSGVSGAGGTVHQPGFIVVETNYRLYAYTESELQIALIALFSEMLYRFPNMVVAQVTRESVQQAIASGITAQQIIHFLRTRAHPVMLKQTPVLPPTITDQIRLWELERDRLRFTEGVLYNQFLSQVDFELLLAHARELGVLVFENSAKRLMVVTPAGHSDVKRFWKRQKHSS
chain 2: MGKRDRADRDKKKSRKRHYEDEEDDEEDAPGNDPQEAVPSAAGKQVDESGTKVDEYGAKDYRLQMPLKDDHTSRPLWVAPDGHIFLEAFSPVYKYAQDFLVAIAEPVCRPTHVHEYKLTAYSLYAAVSVGLQTSDITEYLRKLSKTGVPDGIMQFIKLCTVSYGKVKLVLKHNRYFVESCHPDVIQHLLQDPVIRECRLRNSEGEATELITETFTSKSAISKTAESSGGPSTSRVTDPQGKSDIPMDLFDFYEQMDKDEEEEEETQTVSFEVKQEMIEELQKRCIHLEYPLLAEYDFRNDSVNPDINIDLKPTAVLRPYQEKSLRKMFGNGRARSGVIVLPCGAGKSLVGVTAACTVRKRCLVLGNSAVSVEQWKAQFKMWSTIDDSQICRFTSDAKDKPIGCSVAISTYSMLGHTTKRSWEAERVMEWLKTQEWGLMILDEVHTIPAKMFRRVLTIVQAHCKLGLTATLVREDDKIVDLNFLIGPKLYEANWMELQNNGYIAKVQCAEVWCPMSPEFYREYVAIKTKKRILLYTMNPNKFRACQFLIKFHERRNDKIIVFADNVFALKEYAIRLNKPYIYGPTSQGERMQILQNFKHNPKINTIFISKVGDTSFDLPEANVLIQISSHGGSRRQEAQRLGRVLRAKKGMVAEEYNAFFYSLVSQDTQEMAYSTKRQRFLVDQGYSFKVITKLAGMEEEDLAFSTKEEQQQLLQKVLAATDLDAEEEVVAGEFGSRSSQASRRFGTMSSMSGADDTVYMEYHSSRSKAPSKHVHPLFKRFRK

# Variants of: B1
# protocol: FLAG-IP LC–MS (iBAQ); HEK293T nuclear extracts; n = 3, biological replicates; read off a plot
observation-type: response

1. chain 1 E310F = ~0.57 Normalized Log2 iBAQ
2. chain 1 E310A, chain 1 R314A = ~0.78 Normalized Log2 iBAQ

Could I get response for every one of these entries?
1. chain 1 Y316A, chain 1 Y318A
2. chain 1 R337A, chain 1 F338A

Output:
~0.63 Normalized Log2 iBAQ
~0.67 Normalized Log2 iBAQ
